// data source = patent US9573987B2

measured.on: IGF-1 receptor (Homo sapiens, UniProt P08069)
experiment: IGF-1 receptor phosphorylation assay, receptor transfected HEK293 cells
Format: cell-based
Parameters: expressed in transfected cells; host or cells: HEK293
conditions: Table 15; read-out: Receptor Phosphorylation IGF-IR EC50
Assign labels as follows, please: fulfilled for EC50 below 20 nM; not fulfilled for EC50 equal to or exceeding 20 nM.

GEEEEEKGPEHLCGAHLVDALYLVCGDRGFYSSSSRAPPPSLPSPSRLPGPSD TPILPQKGIVDECCHRSCDLRRLENYCN (protein, listed as Homo sapiens) GEEEEEKGPEHLCGAHLVDALYLVCGDRGFYSSSSRAPPPSLPSPSRLPGPSDTPILPQKGIVDECCHRSCDLRRLENYCN; not fulfilled
… AHLVDALYLVCGDRGFYGYGSSSRRAPQTGIVDECCHRSCDLRRLENYCN (protein, listed as Homo sapiens) MGSSSSKAPPPSLPSPSRLPGPSDTPILPQEEEEEKGPEHLCGAHLVDALYLVCGDRGFYGYGSSSRRAPQTGIVDECCHRSCDLRRLENYCN; not fulfilled

Does the reported EC50 of the following molecule sit strictly below 20 nM? DP22: CTP-E5R-B chain-CTP(K)-A Chain (SEQ ID NO: 91) (protein, single chain insulin analog) MGSSSSKAPPPSLPSPSRLPGPSDTPILPQEEEEERGPEHLCGAHLVDALYLVCGDRGFYSSSSRAPPPSLPSPSRLPGPSDTPILPQKGIVDECCHRSCDLRRLENYCN
not fulfilled

Does the reported EC50 of the following molecule sit strictly below 20 nM? DP20LysC: DP20 cleaved at the lysine of CTP to produce a two chain insulin (protein) chain 1: GPEHLCGAHLVDALYLVCGDRGFYSSSSRAPPPSLPSPSRLPGPSDTPILPQK chain 2: GIVDECCHRSCDLRRLENYCN
fulfilled

Does the reported EC50 of the following molecule sit strictly below 20 nM? DP22LysC: DP22 cleaved at the lysine of CTP to produce a two chain insulin (protein) chain 1: APPPSLPSPSRLPGPSDTPILPQEEEEERGPEHLCGAHLVDALYLVCGDRGFYSSSSRAPPPSLPSPSRLPGPSDTPILPQK chain 2: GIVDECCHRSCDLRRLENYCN
not fulfilled
